From: ChEMBL document CHEMBL4251743

Below, each entry is listed alongside its reported pKi.
- tested.target: Neuronal acetylcholine receptor subunit alpha-7 (Rattus norvegicus, UniProt Q05941)
- Sequence (Q05941 whole entry): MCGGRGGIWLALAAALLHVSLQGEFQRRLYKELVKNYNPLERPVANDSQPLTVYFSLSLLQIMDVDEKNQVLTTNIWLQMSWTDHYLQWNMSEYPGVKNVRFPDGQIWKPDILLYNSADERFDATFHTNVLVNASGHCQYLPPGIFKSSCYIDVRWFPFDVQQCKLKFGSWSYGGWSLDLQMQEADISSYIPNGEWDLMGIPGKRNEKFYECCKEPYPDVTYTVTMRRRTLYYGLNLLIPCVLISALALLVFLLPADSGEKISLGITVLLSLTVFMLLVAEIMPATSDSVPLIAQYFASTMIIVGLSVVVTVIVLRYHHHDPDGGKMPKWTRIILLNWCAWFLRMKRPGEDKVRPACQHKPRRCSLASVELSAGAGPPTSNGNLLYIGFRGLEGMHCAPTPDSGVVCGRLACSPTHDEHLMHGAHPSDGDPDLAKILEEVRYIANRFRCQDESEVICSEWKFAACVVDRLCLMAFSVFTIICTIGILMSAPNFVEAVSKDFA
- assay.remarks: Displacement of [3H]epibatidine from alpha7 nAChR (unknown origin) expressed in HEK cell membranes after 4 hrs by liquid scintillation counting method
When answering, recall that pKi equals minus log10 of the concentration in mol/L, and write that number alone.

The cases that follow already have their pKi on record.
molecule	numeric.result
Clc1ccc2c(n1)O[C@@]13CC[C@@H]1NC[C@@H]23	6.89
Clc1ccc2c(n1)OC13CCC1NCC23 (racemic)	8.27

## Input Need pKi of `Clc1ccc2c(n1)O[C@]13CC[C@H]1NC[C@H]23` , thanks.
## Output 8.36

###

Below, each entry is listed alongside its reported EC50.
- tested.target: Neuronal acetylcholine receptor subunit alpha-7 (Rattus norvegicus, UniProt Q05941)
- assay.remarks: Agonist activity at rat alpha7 nAChR expressed in Xenopus oocytes at -60 mV holding potential by electrophysiology method
Just the number please, in µM, no unit attached.

The cases that follow already have their EC50 on record.
compound	outcome.measure	numeric.result
Clc1ccc2c(n1)OC13CCC1NCC23 (racemic)	EC50	9.9
Clc1ccc2c(n1)O[C@]13CC[C@H]1NC[C@H]23	EC50	4

Then there is this compound:
## Input Need EC50 of Clc1ccc2c(n1)O[C@@]13CC[C@@H]1NC[C@@H]23 [PHANTASMIDINE] , thanks.
## Output 21

###

- tested.target: Neuronal acetylcholine receptor
- assay.remarks: Displacement of [3H]epibatidine from rat forebrain nAChR after 4 hrs by liquid scintillation counting method
Below, each entry is listed alongside its reported Ki.
Just the number please, in nM, no unit attached.

compound	Ki [nM]
Clc1ccc2c(n1)O[C@]13CC[C@H]1NC[C@H]23	0.87

## Input Need Ki of Clc1ccc2c(n1)O[C@@]13CC[C@@H]1NC[C@@H]23 [PHANTASMIDINE] , thanks.
## Output 29

## Input Need Ki of Clc1ccc2c(n1)OC13CCC1NCC23 (racemic) , thanks.
## Output 1.1
